Recorded values, source PubChem BioAssay (NCI).

Tested on: M14 melanoma
Assay: NCI-60 one-dose screen, 48 h
Conditions: 10 µM
The panel holds about 83,000 compounds, 20% with a hit somewhere; the sample as a whole holds those more often. Activity calls are given as the source filed them. The calls were made as follows: active = growth percent below 10; inactive = the rest.
Valid outcomes are listed here; reply with one: TRUE (active), FALSE (inactive)

Query: Which outcome did this test record for the compound `ClCc1ccc2ccccc2n1` ?
Reply: FALSE

Query: What call does the record list for `NNc1ccccc1` ?
Reply: FALSE

Query: Name the outcome recorded for `O=[N+]([O-])/C=C\c1ccc2c(c1)OCO2` in the assay.
Reply: FALSE

Query: Which result was noted for this compound in the test: `CC(C)c1cc([N+](=O)[O-])cc([N+](=O)[O-])c1O`
Reply: FALSE

Query: # outcome recorded in this test, key = `NC(=O)c1cc([N+](=O)[O-])c(Cl)c([N+](=O)[O-])c1`
Reply: FALSE

Query: Entry CC[C@@H](C)[C@@H]1NC(=O)C(NC(=O)C(CC(C)C)N(C)C(=O)C2CCCN2C(=O)C(C)O)C(C)OC(=O)C(Cc2ccc(OC)cc2)N(C)C(=O)C2CCCN2C(=O)C(CC(C)C)NC(=O)C(C)C(=O)C(C(C)C)OC(=O)C[C@H]1O (some centres undefined) : call = ?
Reply: TRUE

Query: For `Cc1cc(C(C)(C)c2ccc(O)c(C)c2)ccc1O` , which call appears in the assay record?
Reply: FALSE

Query: Returns: the outcome recorded for `O=[N+]([O-])c1ccc(N(CCO)CCO)c2c1no[n+]2[O-]` in this assay.
Reply: TRUE

Query: For `[Cl][Hg][c]1ccc(Cl)s1` , what call appears in the results of this test?
Reply: TRUE

Query: Could you kindly confirm the outcome this assay logged for `C=NCC#N` ?
Reply: FALSE

Query: Given `O=[N+]([O-])c1ccc(N2CCOCC2)c2c1no[n+]2[O-]` , state the outcome it received in this test.
Reply: TRUE

Query: GET /call?item= C#CC1(O)CCC(C(C)(C)C)CC1 (centres undefined) returns the recorded outcome of this test.
Reply: FALSE

Query: Hi, do you know how `CCCCCCCC[N+]12CN3CN(CN(C3)C1)C2` came out in this test?
Reply: FALSE

Query: Outcome logged for `NC(=O)c1cc([N+](=O)[O-])c(Cl)c([N+](=O)[O-])c1Cl` in this assay:
Reply: TRUE

Query: Look up the recorded call for `CC(=O)Nc1c2sscc-2n(C)c1=O` in this test.
Reply: TRUE

Query: Please indicate how the test categorized `[Cl][Hg][c]1ccc2ccccc2c1` .
Reply: TRUE

Query: For this compound, state the assay outcome: `COc1cc(/C=C/[N+](=O)[O-])cc(Br)c1OC`
Reply: TRUE

Query: How was `CC(=O)[O][Hg][c]1c(C)c(C)cc(C)c1C` classified in this test?
Reply: TRUE

Query: Which outcome was entered for the compound CC12OOC(c3ccccc31)c1c2ccc2ccccc12 (centres undefined) in this test?
Reply: TRUE
